Test system: E57 (patient-derived glioblastoma stem cells of mesenchymal subtype);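 note: cell Painting imaging in 384-well plates, CellProfiler features reduced to at least 20 principal components, Euclidean distance versus same-plate DMSO vehicle wells (0.1% v/v), median over six images per well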
ASSAY_SUMMARY: phenotypic distance (Euclidean, principal components) from DMSO controls (arbitrary units); higher = stronger morphological change
SETUP_CONDITIONS: 37 nM; exposure time: 72 h
Counter-ions that a name gives are not always drawn.
Please go through the items and note down their phenotypic distance.

response.value for `C[C@@]12C(=O)OC(=O)[C@]1(C)[C@H]1CC[C@@H]2O1` (field: phenotypic distance) = 0.509

Lab book: phenotypic distance of `CC(C)CC(=O)N[C@H](C(=O)N[C@H](C(=O)N[C@@H](CC(C)C)[C@@H](O)CC(=O)N[C@@H](C)C(=O)N[C@@H](CC(C)C)[C@@H](O)CC(=O)O)C(C)C)C(C)C` noted as 0.554

Entry under test: `CCOC(=O)C1=C(C)NC(C)=C(C(=O)OCC)C1c1c(F)c(F)c(F)c(F)c1F` . Its phenotypic distance was 0.79

Looking up `Cc1cc(Nc2cc(N3CCN(C)CC3)nc(Sc3ccc(NC(=O)C4CC4)cc3)n2)n[nH]1` , I see its phenotypic distance listed as 0.782

According to the records, this molecule `CO[C@H]1C(=O)[C@]2(C)[C@@H](OC)C[C@H]3OC[C@@]3(OC(C)=O)[C@H]2[C@H](OC(=O)c2ccccc2)[C@]2(O)C[C@H](OC(=O)[C@H](O)[C@@H](NC(=O)OC(C)(C)C)c3ccccc3)C(C)=C1C2(C)C` displays phenotypic distance of 5.83

The value of phenotypic distance measured for the molecule CN(C)CCN(Cc1ccc(Cl)cc1)c1ccccn1 [Chloropyramine hydrochloride] turned out to be 0.59

For reference, reported phenotypic distance for `O=C(/C=C/c1cccnc1)NCCCCC1CCN(C(=O)c2ccccc2)CC1` stands at 3.21

Documented phenotypic distance of `COc1cccc2c1C(=O)c1c(O)c3c(c(O)c1C2=O)C[C@@](O)(C(=O)CO)C[C@@H]3O[C@H]1C[C@H](N)[C@H](O[C@@H]2CCCCO2)[C@H](C)O1` : 8.43

Query COc1cccc2c1C(=O)c1c(O)c3c(c(O)c1C2=O)C[C@@](O)(C(=O)CO)C[C@@H]3O[C@H]1C[C@H](N)[C@H](O)[C@H](C)O1 [Doxorubicin hydrochloride] yields phenotypic distance of 8.27

Item: `COc1cc([C@@H]2c3cc4c(cc3[C@H](O)[C@H]3COC(=O)[C@H]23)OCO4)cc(OC)c1OC` | phenotypic distance: 7.38

The recorded phenotypic distance for entry `Cn1ncnc1[C@H]1c2n[nH]c(=O)c3cc(F)cc(c23)N[C@@H]1c1ccc(F)cc1` equals 1.65

Looking up CC1=C(/C=C/C(C)=C/C=C/C(C)=C/C(=O)Nc2ccc(O)cc2)C(C)(C)CCC1 [Retinoic acid p-hydroxyanilide] , I found its phenotypic distance recorded as 0.599

Per the records, this molecule ( `Cc1ccc(C(=O)Nc2ccc(CN3CCN(C)CC3)c(C(F)(F)F)c2)cc1C#Cc1cnc2cccnn12` ) has phenotypic distance equal to 3.63
